Measured target: T1, human serum albumin (human, UniProt P02768 25-609)
T1 construct: immobilized on chips or coated on plates elsewhere; also called HSA; HuSA
Method description: direct binding ELISA, albumin coated
Reported property: EC50 (nM)
Answers are plain numbers, in nM.

Would you please look over these solved cases?
- Binder: "PCSK9-PKE2 tandem 4472_D08 (designed binder, not shown: small tags and cut ends, The two parts are one polypeptide in the real molecule, joined by the undisclosed linker N; they are given here as separate chains.) PCSK9 10Fn3: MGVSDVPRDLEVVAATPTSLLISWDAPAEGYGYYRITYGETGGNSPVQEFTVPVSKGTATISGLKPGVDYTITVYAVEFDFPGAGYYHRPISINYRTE PKE2 10Fn3: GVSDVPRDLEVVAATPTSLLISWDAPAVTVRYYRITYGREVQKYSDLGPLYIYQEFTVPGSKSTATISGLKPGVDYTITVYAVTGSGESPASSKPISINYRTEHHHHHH"
  Number: 80.2
- Binder: "PCSK9-PKE2 tandem 4472_G10 (designed binder, The real molecule is ONE polypeptide: PCSK9 domain, undisclosed linker H (a code letter), PKE2 domain. It is given here as two chains because the linker letters are unknown., not shown: The inter-domain linker) PCSK9 domain: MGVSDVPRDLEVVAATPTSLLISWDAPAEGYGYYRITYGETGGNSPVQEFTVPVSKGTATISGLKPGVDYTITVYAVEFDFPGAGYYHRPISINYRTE PKE2 domain: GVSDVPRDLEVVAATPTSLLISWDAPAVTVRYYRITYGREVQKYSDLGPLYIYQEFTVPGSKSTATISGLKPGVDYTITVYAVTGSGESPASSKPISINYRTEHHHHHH"
  Number: 61.3

Moving on to another binder below.
// field: EC50; key: PCSK9-PKE2 tandem 4472_A06 (designed binder, not shown: small tags and cut ends, The two parts are one polypeptide in the real molecule, joined by the undisclosed linker M; they are given here as separate chains.) PCSK9 10Fn3: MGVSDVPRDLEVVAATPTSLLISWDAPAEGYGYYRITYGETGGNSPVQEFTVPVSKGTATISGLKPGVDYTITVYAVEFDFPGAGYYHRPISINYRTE PKE2 10Fn3: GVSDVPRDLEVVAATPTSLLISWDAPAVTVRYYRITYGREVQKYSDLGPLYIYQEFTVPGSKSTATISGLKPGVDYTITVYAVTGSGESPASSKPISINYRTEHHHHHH ; value = 77.8

Hello, the source for this data is patent US20200048328A1, in case you need it.
